Measured Target: USP7-F291N (Homo sapiens, UniProt Q93009, F291N)
Sequence (Q93009 whole entry F291N): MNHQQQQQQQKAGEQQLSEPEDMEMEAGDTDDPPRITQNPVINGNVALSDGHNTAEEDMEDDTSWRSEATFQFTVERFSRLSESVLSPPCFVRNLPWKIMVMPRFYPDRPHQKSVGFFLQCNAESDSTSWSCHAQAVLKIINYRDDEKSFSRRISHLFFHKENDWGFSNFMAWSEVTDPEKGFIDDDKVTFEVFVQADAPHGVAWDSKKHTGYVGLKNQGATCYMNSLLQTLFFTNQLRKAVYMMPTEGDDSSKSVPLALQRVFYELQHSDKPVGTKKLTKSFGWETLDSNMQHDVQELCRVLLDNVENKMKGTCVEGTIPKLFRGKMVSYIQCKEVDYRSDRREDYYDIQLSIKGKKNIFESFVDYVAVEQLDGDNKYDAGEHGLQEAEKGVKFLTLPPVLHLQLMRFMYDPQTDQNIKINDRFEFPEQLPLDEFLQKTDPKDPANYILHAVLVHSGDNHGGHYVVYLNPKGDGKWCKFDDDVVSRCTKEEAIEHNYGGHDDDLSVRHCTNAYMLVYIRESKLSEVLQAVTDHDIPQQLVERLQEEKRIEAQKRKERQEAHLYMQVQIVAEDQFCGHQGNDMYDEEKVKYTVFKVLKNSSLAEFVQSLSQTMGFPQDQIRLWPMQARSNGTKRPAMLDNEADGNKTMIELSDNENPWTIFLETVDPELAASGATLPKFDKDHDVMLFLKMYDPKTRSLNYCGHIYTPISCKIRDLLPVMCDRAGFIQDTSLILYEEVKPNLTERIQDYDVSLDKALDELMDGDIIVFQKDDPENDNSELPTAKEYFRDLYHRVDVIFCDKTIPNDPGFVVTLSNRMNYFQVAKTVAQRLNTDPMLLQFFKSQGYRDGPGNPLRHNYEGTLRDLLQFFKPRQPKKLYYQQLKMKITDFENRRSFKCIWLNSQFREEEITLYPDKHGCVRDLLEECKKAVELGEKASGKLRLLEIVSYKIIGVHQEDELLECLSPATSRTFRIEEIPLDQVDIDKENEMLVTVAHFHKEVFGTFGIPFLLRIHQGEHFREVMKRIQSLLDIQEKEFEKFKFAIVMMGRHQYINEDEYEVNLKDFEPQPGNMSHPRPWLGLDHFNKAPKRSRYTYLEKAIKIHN
Assay Method Text: Ub-AMC enzymatic assay, USP7-F291N mutant
Measurement Setup: 6-hr pre-incubation
Measured Parameter: IC50 (nM)

- CN1CCN(CCC(=O)Nc2ccc3c(=O)n(CC4(O)CCN(C(=O)[C@@H](CCCNC(=O)c5ccc6c(Cl)c7c(nc6c5)CCCC7)Cc5ccccc5)CC4)cnc3c2)CC1 [XL177A]: 629

* * *

Measured Target: USP7 (Homo sapiens)
Sequence (Q93009 whole entry): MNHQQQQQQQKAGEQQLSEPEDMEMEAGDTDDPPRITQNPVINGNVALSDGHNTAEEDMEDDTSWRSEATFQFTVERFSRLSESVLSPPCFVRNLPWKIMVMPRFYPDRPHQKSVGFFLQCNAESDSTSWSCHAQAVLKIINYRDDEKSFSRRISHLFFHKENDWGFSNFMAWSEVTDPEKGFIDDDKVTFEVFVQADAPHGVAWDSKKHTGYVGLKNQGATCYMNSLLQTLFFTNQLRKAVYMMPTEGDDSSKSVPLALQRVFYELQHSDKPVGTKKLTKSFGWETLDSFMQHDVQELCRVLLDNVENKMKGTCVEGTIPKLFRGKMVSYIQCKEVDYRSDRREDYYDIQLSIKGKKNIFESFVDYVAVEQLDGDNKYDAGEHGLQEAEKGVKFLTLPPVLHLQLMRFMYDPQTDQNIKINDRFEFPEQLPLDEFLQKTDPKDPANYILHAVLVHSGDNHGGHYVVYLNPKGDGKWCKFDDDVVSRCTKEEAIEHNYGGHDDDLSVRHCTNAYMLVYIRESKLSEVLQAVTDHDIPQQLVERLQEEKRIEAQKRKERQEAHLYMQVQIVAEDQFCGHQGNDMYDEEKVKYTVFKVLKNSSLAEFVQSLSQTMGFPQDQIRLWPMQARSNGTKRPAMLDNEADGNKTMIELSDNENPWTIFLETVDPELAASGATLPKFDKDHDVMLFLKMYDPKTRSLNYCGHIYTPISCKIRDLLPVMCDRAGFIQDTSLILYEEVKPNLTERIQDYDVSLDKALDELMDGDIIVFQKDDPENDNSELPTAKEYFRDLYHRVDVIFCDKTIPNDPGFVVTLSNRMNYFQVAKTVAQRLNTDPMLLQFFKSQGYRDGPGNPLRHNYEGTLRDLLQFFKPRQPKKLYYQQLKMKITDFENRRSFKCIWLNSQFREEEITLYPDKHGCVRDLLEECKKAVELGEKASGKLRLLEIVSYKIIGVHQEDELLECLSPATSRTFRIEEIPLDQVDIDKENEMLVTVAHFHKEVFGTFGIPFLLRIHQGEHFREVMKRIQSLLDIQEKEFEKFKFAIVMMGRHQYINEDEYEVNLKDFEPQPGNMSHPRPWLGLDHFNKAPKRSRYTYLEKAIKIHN
Assay Method Text: Competitive ABPP with HA-Ub-VS in MCF7 crude cell extracts
Type: binding
Parameters: endogenous in cells; host or cells: MCF7
Measurement Setup: 4 hr preincubation, read-out: IC50 of inhibition of HA-Ub-VS labeling
Measured Parameter: IC50 (nM)

• CN1CCN(CCC(=O)Nc2ccc3c(=O)n(CC4(O)CCN(C(=O)[C@@H](CCCNC(=O)c5ccc6c(Cl)c7c(nc6c5)CCCC7)Cc5ccccc5)CC4)cnc3c2)CC1 [XL177A] = 8

* * *

Measured Target: USP7-Q351S (Homo sapiens, UniProt Q93009, Q351S)
Sequence (Q93009 whole entry Q351S): as the sequence (Q93009 whole entry F291N) above, with N291F, Q351S counted along it
Assay Method Text: Ub-AMC enzymatic assay, USP7-Q351S mutant
Measurement Setup: 6-hr pre-incubation
pIC50: −log10 of the molar value.
Measured Parameter: pIC50

* CN1CCN(CCC(=O)Nc2ccc3c(=O)n(CC4(O)CCN(C(=O)[C@@H](CCCNC(=O)c5ccc6c(Cl)c7c(nc6c5)CCCC7)Cc5ccccc5)CC4)cnc3c2)CC1 [XL177A] | 6.72

* * *

Measured Target: full-length USP7 (Homo sapiens, UniProt Q93009)
Construct: The constructs encoding USP7 full length (amino acids 1–1102) and catalytic domain (208–560); inferred from Ni-NTA purification; made in house; host or cells: E. coli BL21 (DE3)
Sequence (Q93009 whole entry, the tested form may be a part): as the sequence (Q93009 whole entry) above
Assay Method Text: Ub-AMC enzymatic assay, full-length USP7, 6 h pre-incubation
Type: biochemical
Measurement Setup: Ub-AMC, 6-hour pre-treatment; read-out: IC50
Measured Parameter: IC50 (nM)

• CN1CCN(CCC(=O)Nc2ccc3c(=O)n(CC4(O)CCN(C(=O)[C@H](CCCNC(=O)c5ccc6c(Cl)c7c(nc6c5)CCCC7)Cc5ccccc5)CC4)cnc3c2)CC1 [XL177B] = 340

* * *

Measured Target: USP7 (Homo sapiens)
Assay Method Text: Competitive ABPP with HA-Ub-VS in MCF7 crude cell extracts
Assay type: binding
Parameters: endogenous in cells; host or cells: MCF7
Measurement Setup: 30 min preincubation, read-out: IC50 of inhibition of HA-Ub-VS labeling
pIC50: −log10 of the molar value.
Measured Parameter: pIC50

* CN1CCN(CCC(=O)Nc2ccc3c(=O)n(CC4(O)CCN(C(=O)[C@@H](CCCNC(=O)c5ccc6c(Cl)c7c(nc6c5)CCCC7)Cc5ccccc5)CC4)cnc3c2)CC1 [XL177A] | 7.07

* * *

Measured Target: full-length USP7 (Homo sapiens, UniProt Q93009)
Construct: The constructs encoding USP7 full length (amino acids 1–1102) and catalytic domain (208–560); inferred from Ni-NTA purification; made in house; host or cells: E. coli BL21 (DE3)
Assay Method Text: Ub-AMC enzymatic assay, full-length USP7, 6 h pre-incubation
Format: biochemical
Measurement Setup: Table S1; Ub-AMC; read-out: IC50
Measured Parameter: IC50 (µM)

* CN1CCN(CCC(=O)Nc2ccc3c(=O)n(CC4(O)CCN(C(=O)CCCCNC(=O)c5ccc6c(Cl)c7c(nc6c5)CCCC7)CC4)cnc3c2)CC1 | 0.152
* CN1CCN(CCC(=O)Nc2ccc3c(=O)n(CC4CCN(C(=O)C(CCCNC(=O)c5ccc6c(Cl)c7c(nc6c5)CCCC7)Cc5ccccc5)CC4)cnc3c2)CC1 (centres unmarked) | 8.13

* * *

Measured Target: USP7 (Homo sapiens)
Assay Method Text: Live cell treatment and competitive ABPP with HA-Ub-VS
Type: cell-based
Design: endogenous in cells; host or cells: MCF7
Measurement Setup: live cell treatment, 6 hr; read-out: IC50, USP7 inhibition in cyto
Measured Parameter: IC50 (nM)

* CN1CCN(CCC(=O)Nc2ccc3c(=O)n(CC4(O)CCN(C(=O)[C@@H](CCCNC(=O)c5ccc6c(Cl)c7c(nc6c5)CCCC7)Cc5ccccc5)CC4)cnc3c2)CC1 [XL177A] | 39

Where do these numbers come from? They come from paper PMC7093416.
